Tested on: A549
ASSAY_INFO: Cytotoxicity against human A549 cells after 72 hrs by Alamar Blue assay
Type: functional, cell-based
CONDITION_SET: A549, 72 h
ENDPOINT_LABEL: IC50

Record IC50 per entry; entries follow.
1. H-IPLWPVIP-OH
2. H-PVIPIPLW-OH

> 20 µM
> 20 µM

====

Test system: HeLa
ASSAY_INFO: Cytotoxicity against human HeLa cells after 72 hrs by Alamar Blue assay
Format: functional, cell-based
ENDPOINT_LABEL: IC50 (µM)
Numbers only, in µM.

What value of IC50 has been recorded for this entry: `H-IPLWPVIP-OH`
18.4
